Target: T1, AAV8 (adeno-associated virus 8, Assembled 60-mer capsid of VP1/VP2/VP3 (nested products of one cap gene), amine-coupled to a CM5 chip; the letters give one VP1 subunit only.)
T1 construct: also called adeno-associated virus serotype 8
T1 chain: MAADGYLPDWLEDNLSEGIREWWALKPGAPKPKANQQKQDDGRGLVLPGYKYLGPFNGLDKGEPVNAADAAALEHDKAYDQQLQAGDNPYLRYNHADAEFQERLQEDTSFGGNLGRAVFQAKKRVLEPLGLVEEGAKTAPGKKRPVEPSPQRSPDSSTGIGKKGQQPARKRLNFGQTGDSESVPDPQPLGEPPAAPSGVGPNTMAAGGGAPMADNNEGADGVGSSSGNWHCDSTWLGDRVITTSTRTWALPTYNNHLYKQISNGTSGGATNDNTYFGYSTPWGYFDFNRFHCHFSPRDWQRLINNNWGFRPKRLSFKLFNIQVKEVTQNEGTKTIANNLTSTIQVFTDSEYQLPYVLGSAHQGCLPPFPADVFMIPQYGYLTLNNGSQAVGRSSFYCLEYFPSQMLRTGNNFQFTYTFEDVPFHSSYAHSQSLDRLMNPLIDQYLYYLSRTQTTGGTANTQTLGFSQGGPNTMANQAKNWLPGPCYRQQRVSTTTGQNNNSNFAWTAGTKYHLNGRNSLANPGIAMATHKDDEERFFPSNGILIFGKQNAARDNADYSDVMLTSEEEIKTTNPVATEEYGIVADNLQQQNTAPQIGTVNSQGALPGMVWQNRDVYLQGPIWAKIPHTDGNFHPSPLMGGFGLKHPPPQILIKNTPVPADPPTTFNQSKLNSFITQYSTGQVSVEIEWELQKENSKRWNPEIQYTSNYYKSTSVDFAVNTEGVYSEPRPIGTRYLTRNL
Assay: SPR, AAV amine-coupled to CM5 chip
measurement.kind: kon (M⁻¹ s⁻¹)
// return numeric value only (unit: M⁻¹ s⁻¹, not printed)

// worked examples, kon included
[
  {
    "binder": "A4-B2 (bispecific antibody) VQLQESGGGLVQAGGSLRLSCAASGSRFSINTMGWYRQAPGKQREFVATVTRGGNTNYAESVKGRFTISRDNAKNTVYLQMNSLRPEDTAVYYCHVDEVRDSSWTTSNIWGQGTQVTVSSGGGGSGGGGSGGGGSVQLQESGGGLVQAGGSLRLSCAASGSTFSINTMGWYRQAPGKQRELVATITRGGNTNYADSVKGRFTISRDNAKNTVYLQMNSLRPEDTAVYYCHVDEVRQSSWTTSNLWGQGTQVTVSS",
    "kon / M⁻¹ s⁻¹": 138000
  },
  {
    "binder": "A4-C5 (bispecific antibody) VQLQESGGGLVQPGGSLRLSCAASGSNFRINTMGWYRQAPGKQRELVATVTRGGSTNYADSVKGRFTISRDNPKNTVYLQMNSLRPEDTAVYYCHVDEVRESSWTTSNLWGQGTQVTVSSGGGGSGGGGSGGGGSVQLQESGGGLVQPGGSLRLSCAASGSNFSINTMGWYRQAPGKQRELVATVTRGGDTNYADSVKGRFTISRDNAKNTVYLQMNSLRPEDTAVYYCHVDEIRESSWTTSNLWGQGTQVTVSSGGGGSGGGGSGGGGSVQLQESGGGLVQPGGSLRLSCAASGSNFRINTMGWYRQAPGKQRELVATVTRGGSTNYADSVKGRFTISRDNPKNTVYLQMNSLRPEDTAVYYCHVDEVRESSWTTSNLWGQGTQVTVSS",
    "kon / M⁻¹ s⁻¹": 183000
  },
  {
    "binder": "A4-C4 (bispecific antibody) VQLQESGGGLVQAGGSLRLSCAASGSRFSINTMGWYRQAPGKQREFVATVTRGGNTNYAESVKGRFTISRDNAKNTVYLQMNSLRPEDTAVYYCHVDEVRDSSWTTSNIWGQGTQVTVSSGGGGSGGGGSGGGGSVQLQESGGGLVQAGGSLRLSCAASGSRFSINTMGWYRQAPGKQREFVATVTRGGNTNYAESVKGRFTISRDNAKNTVYLQMNSLRPEDTAVYYCHVDEVRDSSWTTSNIWGQGTQVTVSSGGGGSGGGGSGGGGSVQLQESGGGLVQPGGSLRLSCAASGSNFRINTMGWYRQAPGKQRELVATVTRGGSTNYADSVKGRFTISRDNPKDTVYLQMNSLRPEDTAVYYCHVDEVRESSWTTSNLWGQGTQVTVSS",
    "kon / M⁻¹ s⁻¹": 106000
  }
]

Okay, next one:
Task: Value lookup for kon; key = A4-C2 (VHH) VQLQESGGGLVQPGGSLRLSCAASGSAFSINTMGWYRQAPGKQRELVASVTPGGSTNYADSVKGRFTISRDNAKNTIYLQMNSLRPEDTAVYYCHLDEVRESSWTTSNLWGQGTQVTVSSGGGGSGGGGSGGGGSVQLQESGGGLVQPGGSLRLSCAASGSAFSINTMGWYRQAPGKQRELVASVTPGGSTNYADSVKGRFTISRDNAKNTIYLQMNSLRPEDTAVYYCHLDEVRESSWTTSNLWGQGTQVTVSSGGGGSGGGGSGGGGSVQLQESGGGLVQPGGSLRLSCAASGSAFSINTMGWYRQAPGKQRELVASVTPGGSTNYADSVKGRFTISRDNAKNTIYLQMNSLRPEDTAVYYCHLDEVRESSWTTSNLWGQGTQVTVSS
Result: 139000
